# targetOrSystem: PcrV of P. aeruginosa strain PA103 (on TTSS-induced bacteria) (Pseudomonas aeruginosa strain PA103)
# measurementNotes: cell-based or functional assay
readoutType: Ratio (IC50 Fab 13.37/IC50 Nanobody), A549 cytotoxicity (fold)
Field format: number, assumed fold, no unit text.

binder | endpointResult
Nanobody 256 (13F07-40GS-5H01) (VHH) EVQLVESGGGLVQAGGSLRLSCAASGNTFSTNPMYWYRQAEGKQRELVASISSRGITNYADSVRGRFSISRDNTKDTVYLQMNSLKPEDTAVYYCRLASLSSGTVYWGKGTLVTVSSGGGGSGGGGSGGGGSGGGGSGGGGSGGGGSGGGGSGGGGSEVQLVESGGGLVQPGGSLRLSCAASGSTLDYYAIGWFRQAPGKEREGVSCTSNSGSTYYGGSVKGRFTASRDNAKNTVYLQMNSLRPEDTAVYYCVATIGCATLGGTLDVQRYYYRGQGTLVTVSS | 21
Nanobody 285 (13F07-40GS-2B02) (VHH) EVQLVESGGGLVQAGGSLRLSCAASGNTFSTNPMYWYRQAEGKQRELVASISSRGITNYADSVRGRFSISRDNTKDTVYLQMNSLKPEDTAVYYCRLASLSSGTVYWGKGTLVTVSSGGGGSGGGGSGGGGSGGGGSGGGGSGGGGSGGGGSGGGGSEVQLVESGGGLVQPGDSLRLSCAASGRILSINNMVWYRQAPGKQRELVAHITSSGSTGYADSVKGRFTISRDNAKNTFYLQMTNLNPEDTAVYYCNCWVSSDSNAPLKNYWGQGTLVTVSS | 1
Nanobody 257 (13F07-40GS-2B10) (VHH) EVQLVESGGGLVQAGGSLRLSCAASGNTFSTNPMYWYRQAEGKQRELVASISSRGITNYADSVRGRFSISRDNTKDTVYLQMNSLKPEDTAVYYCRLASLSSGTVYWGKGTLVTVSSGGGGSGGGGSGGGGSGGGGSGGGGSGGGGSGGGGSGGGGSEVQLVESGGGLVQPGGSLRLSCAASGSIFSINNMGWYRQAPGKQRELVTVVTSNLITTYADSVKGRFTISRDNAKNTVYLQMNSLKPEDTAVYYCNAWARSVGSVPYSQFWGQGTLVTVSS | 10

Please fill in: Ratio (IC50 Fab 13.37/IC50 Nanobody), A549 cytotoxicity reported for Nanobody 319 (13F07-40GS-6B05) (VHH) EVQLVESGGGLVQAGGSLRLSCAASGNTFSTNPMYWYRQAEGKQRELVASISSRGITNYADSVRGRFSISRDNTKDTVYLQMNSLKPEDTAVYYCRLASLSSGTVYWGKGTLVTVSSGGGGSGGGGSGGGGSGGGGSGGGGSGGGGSGGGGSGGGGSEVQLVESGGGLVQPGGSLRLSCAASGSIFSINTMGWYRQAPGKQRELVSTITSNLVPHYADSVQGRFTISRDNARNTVYLQMNSLKPQDTAHYYCNAWARSSGATPYTNYWGQGTLVTVSS = 2

In plain terms, Nanobody 275 (2G09-40GS-5H01) (VHH) EVQLVESGGGLVQPGGSLRLSCAASGSFGDNYELYAMTWFRQAPGERRDFVASVTGDGSTSYADSVKDRFTISRDNAKKLMYLQMNSLKPEDTAVYYCRLLNYWGQGTLVTVSSGGGGSGGGGSGGGGSGGGGSGGGGSGGGGSGGGGSGGGGSEVQLVESGGGLVQPGGSLRLSCAASGSTLDYYAIGWFRQAPGKEREGVSCTSNSGSTYYGGSVKGRFTASRDNAKNTVYLQMNSLRPEDTAVYYCVATIGCATLGGTLDVQRYYYRGQGTLVTVSS has a documented Ratio (IC50 Fab 13.37/IC50 Nanobody), A549 cytotoxicity of 1

The reported Ratio (IC50 Fab 13.37/IC50 Nanobody), A549 cytotoxicity of the binder Nanobody 261 (5H01-40GS-2B10) (VHH) EVQLVESGGGLVQPGGSLRLSCAASGSTLDYYAIGWFRQAPGKEREGVSCTSNSGSTYYGGSVKGRFTASRDNAKNTVYLQMNSLRPEDTAVYYCVATIGCATLGGTLDVQRYYYRGQGTLVTVSSGGGGSGGGGSGGGGSGGGGSGGGGSGGGGSGGGGSGGGGSEVQLVESGGGLVQPGGSLRLSCAASGSIFSINNMGWYRQAPGKQRELVTVVTSNLITTYADSVKGRFTISRDNAKNTVYLQMNSLKPEDTAVYYCNAWARSVGSVPYSQFWGQGTLVTVSS was 1
